Entry source: patent US11795162B2

Target: ERR gamma protein (Homo sapiens, UniProt P62508)
Sequence (P62508 whole entry): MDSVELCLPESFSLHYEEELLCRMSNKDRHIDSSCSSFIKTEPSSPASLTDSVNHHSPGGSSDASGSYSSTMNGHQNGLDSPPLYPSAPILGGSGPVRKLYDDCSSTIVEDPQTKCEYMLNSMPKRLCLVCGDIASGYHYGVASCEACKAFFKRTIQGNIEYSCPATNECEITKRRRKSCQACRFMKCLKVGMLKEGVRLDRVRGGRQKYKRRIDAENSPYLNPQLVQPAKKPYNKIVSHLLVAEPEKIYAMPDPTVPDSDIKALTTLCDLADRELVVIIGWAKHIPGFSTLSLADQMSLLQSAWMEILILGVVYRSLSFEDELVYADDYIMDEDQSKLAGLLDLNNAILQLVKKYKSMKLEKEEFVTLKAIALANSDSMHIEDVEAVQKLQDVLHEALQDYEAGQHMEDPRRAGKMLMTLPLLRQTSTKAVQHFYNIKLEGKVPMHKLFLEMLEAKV
Assay: Protein thermal shift assay
Format: binding
Details: compound at 20 μM; ERR gamma protein 0.1 mg/mL, SYPRO-Orange; read-out: T.S. (thermal shift) range
Readout Name: ΔTm at 20 µM

Some solved cases for reference:
O=C(Nc1ccc2ccccc2c1)c1cc(-c2ccc(O)cc2)[nH]n1 [Compound 122] : 2 to 4 °C
CC(C)Cc1ccc(-c2ccc(C(=O)Nc3ccc(O)cc3)s2)cc1 [Compound 79] : 2 to 4 °C
CC(C)c1ccc(NC(=O)c2cc(-c3cccc(O)c3)[nH]n2)cc1 [Compound 130] : 0 to 2 °C

Attention now turns to another entry.
Q. # input compound: Nc1cccc(NC(=O)c2ccc(-c3ccc(Cl)cc3)s2)c1 [Compound 132] ; wanted: its ΔTm at 20 µM
A. > 4 °C
